Assay: Intrinsic clearance in CD-1 mouse liver microsomes in presence of NADPH up to 30 mins by UPLC-MS/MS analysis
Format: ADME, microsome
Conditions: 0.5 h
OBSERVABLE: intrinsic clearance
// return the numeric value with its unit appended

Consider the following illustrative entries.
// field: intrinsic clearance; key: NC(=O)c1sc(N2CCOCC2)cc1OCCN1CCOCC1 ; value = 0.9 mL/min/g

Note to self: intrinsic clearance recorded for COCCN(C)c1cc(OCCc2ccccc2)c(C(N)=O)s1 was 28 mL/min/g

Form: compound = CNC(=O)c1sc(N2CCOCC2)cc1OCCc1ccccc1 ; intrinsic clearance = 36 mL/min/g

Recorded intrinsic clearance (compound CC1COCCN1c1cc(OCCc2ccccc2)c(C(N)=O)s1 (configuration not stated) ): 11 mL/min/g

More entries:
For record CNC(=O)c1sc(N2CC3CC2CO3)cc1OCCc1ccccc1 (configuration not stated) the listed intrinsic clearance is 13 mL/min/g

response.value for NC(=O)c1sc(N2CCOCC2=O)cc1OCCc1ccccc1 (field: intrinsic clearance) = 7 mL/min/g

Documented intrinsic clearance of NC(O)C1SC(N2CCOCC2)CC1OCC(F)(F)C1CCCCC1 (configuration not stated) : 19 mL/min/g

Entry NC(=O)c1sc(N2CCOCC2)cc1CCCc1ccc(F)cc1 ; intrinsic clearance = 13 mL/min/g

GET /value?item= COC(=O)c1sc(N2CCOCC2)cc1OCCc1ccccc1 &field=intrinsic clearance returns 50 mL/min/g

compound COc1ccccc1CCOc1cc(N2CCOCC2)sc1C(N)=O , intrinsic clearance observed: 26 mL/min/g

The reported intrinsic clearance of the compound NC(=O)c1sc(-n2nccn2)cc1OCCc1ccccc1 was 30 mL/min/g

Lab note: NC(=O)c1sc(N2CCOCC2)cc1OCCc1cccc(F)c1 gave intrinsic clearance of 18 mL/min/g
